Here's what we have: IC50 numbers for BRD4-2 (Homo sapiens).

CN(C)C(=O)c1cc2cnc(Nc3ccc(-c4csc5c(=O)cc(N6CCOCC6)oc45)cc3C(=O)O)nc2n1C1CCCC1
0.5 to 1 µM

Parameter requested: IC50. Apply to each item below.
1. CC(C)(C)OC(=O)Nc1cc2cnc(Nc3ccc(-c4csc5c(=O)cc(N6CCOCC6)oc45)cc3)nc2n1C1CCCC1
2. CCCCC/C=C/C(=O)Nc1cccc(-c2csc3c(=O)cc(N4CCOCC4)oc23)c1
3. C=CC(=O)N1CCOc2ccc(-c3csc4c(=O)cc(N5CCOCC5)oc34)cc21
4. C=CC(=O)Nc1ccc(-c2csc3c(=O)cc(N4CCOCC4)oc23)cc1
5. CN(C)C(=O)c1cc2cnc(N(c3cncc(-c4csc5c(=O)cc(N6CCOCC6)oc45)c3)c3ncc4cc(C(=O)N(C)C)n(C5CCCC5)c4n3)nc2n1C1CCCC1
6. C=CS(=O)(=O)N1CCCc2ccc(-c3csc4c(=O)cc(N5CCOCC5)oc34)cc21

## Output
1: 0.5 to 1 µM; 2: 10 to 45 µM; 3: < 0.5 µM; 4: < 0.5 µM; 5: 1 to 10 µM; 6: < 0.5 µM

Parameter requested: IC50. Apply to each item below.
1. CN(C)C(=O)c1cc2cnc(Nc3ccc(-c4csc5c(=O)cc(N6CCOCC6)oc45)c(C(=O)O)c3)nc2n1C1CCCC1 [Compound 14]
2. C=CS(=O)(=O)N(C)c1cccc(-c2csc3c(=O)cc(N4CCOCC4)oc23)c1
3. C=CS(=O)(=O)N(c1cc(-c2csc3c(=O)cc(N4CCOCC4)oc23)ccc1OC)S(=O)(=O)C=C
4. CN(C)C(=O)c1cc2cnc(Nc3cc(C(=O)O)cc(-c4csc5c(=O)cc(N6CCOCC6)oc45)c3)nc2n1C1CCCC1

## Output
1: 10 to 45 µM; 2: 0.5 to 1 µM; 3: 1 to 10 µM; 4: > 45 µM

Parameter requested: IC50. Apply to each item below.
1. CNC(=O)c1cc2cnc(Nc3ccc(C#Cc4csc5c(=O)cc(N6CCOCC6)oc45)cc3)nc2n1C1CCCC1
2. C=CC(=O)Nc1cc(-c2csc3c(=O)cc(N4CCOCC4)oc23)ccc1OC

## Output
1: 10 to 45 µM; 2: 0.5 to 1 µM
